# target: C-terminal-binding protein 1 (Homo sapiens) (UniProt Q13363)
# protocol_details: qHTS for Inhibitors of the Phosphatase Activity of Eya2: Carboxyl-terminal binding protein (CtBP) Counterscreen for Cherry-picked Compounds; note: nearly all actives have a fitted effect of over 65% in size
# details: purified protein-protein binding, AlphaScreen, 3 h; series mostly up to 46.1 µM
# Description: The Eya protein family is an essential co-activator of the Six1 transcription factor. Six1 is a developmental gene that is abnormally re-expressed in a large percentage of breast cancers. This over-expression plays a causal role in the initiation and metastatic development of breast cancers. […] A 1536 well format, fluorescence based qHTS assay was developed and used to target the phosphatase activity of Eya2 (AID 488837). […]
In all, about 1,300 compounds went through this assay and about 420 (32%) were called active. Inconclusive results (about 32%) are left out. Calls come from the whole dose curve; as a rule, active = well fitted inhibition curve with a large enough effect; inconclusive = small, poorly fitted or top-dose-only effect; inactive = no such curve, though single readings can be large or run the other way. Some of the results follow.
Permitted responses: yes (1) (active), no (0) (inactive)

Recorded results for 2 compounds are shown here.
compound=Cc1cc(C)c(C#N)c(Sc2nnnn2-c2ccccc2)n1 class_name="no (0)"
compound=CCN1CCN(c2ncnc3scc(-c4ccc(C)cc4)c23)CC1 class_name="no (0)"

Request: // return assay outcome for CCOc1ccc(C2C3=C(Nc4nc(N)[nH]c(=O)c42)c2ccccc2C3=O)cc1 (stereo unspecified)
Response: yes (1)

Request: Consider next the compound COc1ccccc1NC(=O)CCCCCN1C(=O)c2cccc3cccc(c23)C1=O in the same way.
Response: no (0)

Request: Consider next the compound N#Cc1c2nc3ccccc3nc2n2cc(NC(=O)c3ccc(F)cc3)ccc12 in the same way.
Response: yes (1)

Request: Consider next the compound CC(=O)Oc1ccc2nonc2c1OC(C)=O in the same way.
Response: no (0)

Request: Consider next the compound O=C(CSc1nnc2c3ccccc3c3ccccc3c2n1)Nc1ccccc1F in the same way.
Response: yes (1)

---

# target: C-terminal-binding protein 1 (Homo sapiens) (UniProt Q13363)
# protocol_details: qHTS for Inhibitors of the Phosphatase Activity of Eya2: Carboxyl-terminal binding protein (CtBP) Counterscreen for Cherry-picked Compounds; note: nearly all actives have a fitted effect of over 65% in size
# details: purified protein-protein binding, AlphaScreen, 3 h; series mostly up to 46.1 µM
The campaign covered roughly 1,300 compounds. About 420 (32%) were called active. Inconclusive results (about 32%) are left out. The call rests on the fitted dose curve; in most records, active means well fitted inhibition curve with a large enough effect; inconclusive means small, poorly fitted or top-dose-only effect; inactive means no such curve, though single readings can be large or run the other way. The list shows a part of the results.
Permitted responses: active, inactive

Recorded results for 6 compounds are shown here.
compound=COc1ccc2oc(C(=O)Nc3cccc(S(=O)(=O)N4CCOCC4)c3)c(C)c2c1 class_name=inactive
compound="Cc1cc(C)c2nc(SCC(=O)N(C)C3CCS(=O)(=O)C3)cc(C)c2c1 (centres undefined)" class_name=inactive
compound=COc1ccc(C(=O)/C=C/Nc2ccc(S(=O)(=O)Nc3nc(C)cc(C)n3)cc2)cc1OC class_name=active
compound=COc1cc(NS(=O)(=O)c2ccc(N/C=C\C(=O)c3ccc(OC)c(OC)c3)cc2)nc(OC)n1 class_name=active
compound="CC1Cc2ccccc2N1NC(=O)c1ccc(Cl)c(S(N)(=O)=O)c1 (centres undefined)" class_name=inactive
compound=S=C(Nc1ccc2c(c1)OCCO2)Nc1ccc2c(c1)OCO2 class_name=inactive

Request: // return assay outcome for Cc1ccc(NC(=O)c2ccc3c(c2)OCO3)cc1S(=O)(=O)N1CCOCC1
Response: active

Request: Consider next the compound O=C1CCCC2=C1C(c1ccco1)Nc1ccc3ccccc3c12 (centres undefined) in the same way.
Response: inactive

Request: Consider next the compound O=C(O)c1ccc(N/N=C/c2cc3cc4c(cc3nc2Cl)OCCO4)cc1 in the same way.
Response: inactive

---

# target: C-terminal-binding protein 1 (Homo sapiens) (UniProt Q13363)
# protocol_details: qHTS for Inhibitors of the Phosphatase Activity of Eya2: Carboxyl-terminal binding protein (CtBP) Counterscreen for Cherry-picked Compounds; note: nearly all actives have a fitted effect of over 65% in size; note: potency is the fitted concentration of half-maximal effect
# details: purified protein-protein binding, AlphaScreen, 3 h; series mostly up to 46.1 µM
# From the text: The Eya protein family is an essential co-activator of the Six1 transcription factor. Six1 is a developmental gene that is abnormally re-expressed in a large percentage of breast cancers. This over-expression plays a causal role in the initiation and metastatic development of breast cancers. […] A 1536 well format, fluorescence based qHTS assay was developed and used to target the phosphatase activity of Eya2 (AID 488837). […]
Out of some 1,300 compounds screened, about 420 (32%) were called active. Roughly 32% stayed inconclusive and do not appear here. Some of the results follow.
measurement_name: Potency

Consider the following illustrative entries.
chemical_smiles=Nc1ccc2nc3c(=O)[nH]c(=S)[nH]c3nc2c1 result="3.79 µM (active)"
chemical_smiles=Cc1c(CCC(=O)NCCCCCC(=O)O)c(=O)oc2cc3occ(-c4ccccc4)c3cc12 result="8.49 µM (active)"
chemical_smiles=CCOC(=O)c1nc(Nc2ccc(Nc3ccccc3)cc2)c2ccccc2n1 result="13.5 µM (active)"
chemical_smiles=CCN1CCN(c2nn3c(=O)c4ccccc4nc3c3ccccc23)CC1 result="9.53 µM (active)"
chemical_smiles=COc1cc(NC(=O)CN2C(=O)CSc3ccc(S(=O)(=O)N4CCCC4)cc32)cc(OC)c1 result=inactive

Request: Given the compound COC(=O)c1cc2c(ccc3ccccc32)oc1=O , what is its reported Potency?
Response: 12 µM (active)

Request: Consider next the compound CN(C)c1ccc(C(=C2C=CC(=[N+](C)C)C=C2)c2ccc(N(C)C)cc2)cc1 in the same way.
Response: 3.79 µM (active)

Request: Consider next the compound CSc1nnc2c(n1)OC(C)=Nc1ccccc1-2 in the same way.
Response: 12 µM (active)

Request: Consider next the compound CCN1C(=O)c2cccc3c(S(=O)(=O)N(C(C)=O)c4ccc(OC(C)=O)cc4)ccc1c23 in the same way.
Response: 12 µM (active)

---

# target: C-terminal-binding protein 1 (Homo sapiens)
# protocol_details: qHTS for Inhibitors of the Phosphatase Activity of Eya2: Carboxyl-terminal binding protein (CtBP) Counterscreen for Cherry-picked Compounds; note: nearly all actives have a fitted effect of over 65% in size
# details: purified protein-protein binding, AlphaScreen, 3 h; series mostly up to 46.1 µM
# From the text: The Eya protein family is an essential co-activator of the Six1 transcription factor. Six1 is a developmental gene that is abnormally re-expressed in a large percentage of breast cancers. This over-expression plays a causal role in the initiation and metastatic development of breast cancers. […] A 1536 well format, fluorescence based qHTS assay was developed and used to target the phosphatase activity of Eya2 (AID 488837). […]
Out of some 1,300 compounds screened, about 420 (32%) were called active. Roughly 32% stayed inconclusive and do not appear here. The call rests on the fitted dose curve; in most records, active means well fitted inhibition curve with a large enough effect; inconclusive means small, poorly fitted or top-dose-only effect; inactive means no such curve, though single readings can be large or run the other way. This is one part of the list.
Permitted responses: active, inactive

Recorded results for 4 molecules are shown here.
chemical_smiles=O=C(/C=C/c1ccccc1)Oc1cccc2cccnc12 class_name=active
chemical_smiles=O=C(c1cccs1)N1CCC(c2nc3c(nnn3Cc3cccc(Cl)c3)c(=O)[nH]2)CC1 class_name=active
chemical_smiles=O=C(/C=C\c1ccccc1)Oc1cccc2cccnc12 class_name=active
chemical_smiles=COc1ccc([C@H]2CC(=O)C=C(c3ccnc4ccc(Cl)cc34)C2)cc1 class_name=inactive

Request: // return assay outcome for Cc1cc(C(=O)COC(=O)c2cccnc2Cl)c(C)n1-c1c(C)n(C)n(-c2ccccc2)c1=O
Response: inactive

---

# target: C-terminal-binding protein 1 (Homo sapiens) (UniProt Q13363)
# protocol_details: qHTS for Inhibitors of the Phosphatase Activity of Eya2: Carboxyl-terminal binding protein (CtBP) Counterscreen for Cherry-picked Compounds; note: nearly all actives have a fitted effect of over 65% in size; note: potency is the fitted concentration of half-maximal effect
# details: purified protein-protein binding, AlphaScreen, 3 h; series mostly up to 46.1 µM
Among all 1,300 compounds or so, about 420 (32%) were called active. Another 32% or so got no clear call; they are omitted. Some of the results follow.
measurement_name: Potency

Consider the following illustrative entries.
molecule=Cc1nc2ncccn2c1-c1csc(Nc2ccccc2)n1 result="2.39 µM (active)"
molecule=Cc1ccc(OCC(=O)Nc2cc(NC(=O)COc3ccc(C)c(C)c3)cc(C(=O)O)c2)cc1C result=inactive
molecule=COc1ccc(C(=O)Nc2nc(-c3ccccn3)cs2)cc1S(=O)(=O)N1CCOCC1 result="1.51 µM (active)"
molecule=COc1ccc(C(=O)Nc2ccc3nc(C)sc3c2)cc1S(=O)(=O)N1CCOCC1 result="21.3 µM (active)"
molecule="CCOc1ccc(NC(=O)C2CC(=O)N(CCc3ccc(OC)c(OC)c3)C2)cc1OCC (configuration not stated)" result="19 µM (active)"
molecule=COc1ccc(-c2cc(C3CCNCC3)[nH]n2)cc1 result=inactive
molecule=O=C(CSc1ccc(-c2ccccn2)nn1)N1CCCC1 result="8.49 µM (active)"
molecule=C[N+](C)(CCCCCI)c1ccc(/C=C/c2nc3ccccc3s2)cc1 result="12 µM (active)"
molecule=Cc1csc(NC(=O)CSc2ccc(-c3ccccn3)nn2)n1 result="4.26 µM (active)"
molecule=CCOC(=O)N1CCN(S(=O)(=O)c2ccc(C(=O)NNc3nc4ccc(Cl)cc4s3)cc2)CC1 result=inactive

Request: Observed Potency on C-terminal-binding protein 1 (Homo sapiens) (UniProt Q13363) for O=C(O)c1ccc2c(c1)C(=O)N(c1cccc(-c3nc4ccccc4s3)c1)C2=O , please.
Response: inactive

Request: Consider next the molecule C1=Cc2ccccc2/C1=C\c1cc2c3c(c1)CCCN3CCC2 in the same way.
Response: 8.49 µM (active)
